For each entry below, report its kon value.
target_of_assay: T1, HCV Core 134-171-TT Peptide (hepatitis C virus (HCV-1 numbering) …)
T1 construct: also called ALRZ-9 peptide
assay_comment: SPR, captured mAb, peptide analyte
Response body: numeric value in M⁻¹ s⁻¹, unit text excluded.

Could you please provide reported kon for HCV 208A-133 (antibody, V domains shown) VH: QLQQSGPVLVGPGASVMISCKTSGYTFTENAMHWVEQSHGKSLEWIGGVNPNNGDTIFNQKFKGKATLTVDKSSSTAFMEFRSLTSEESTVYYCVRRELDFFDYWGQGTSVTVSS VL: DIVLTQSPASLAVSLGQRATISCRASQSVSTSRYSYMHWYQQKPGQPPKLLIKYASNLESGVPARFSGSGSGTDFTLNIHPVAEEDTATYYCQHSWEFPFTFGSGTKLEIKR ? Thanks!
1.2e+06

Assign kon to the following record: HCV 208A-830 (antibody, V domains shown) VH: EVRLQQPGPEVEKPGASVKISCKTSGYTFTEYAIHWVKQSHGESLEWIGGINPSNGDPIYNQIFKDKATLTVDRSSNTAYMGLRSLTVGDSGVYFCVRRQLDYFDFWGQGASLTVSS VL: DIVLTQSPASLAVSLGQRATISCRSSQSVSTSRYSYLHWYQQKPGQPPKLLIKYASNLESGVPARFSGSGSGTDFTLNIHPVGEEDPATYYCQHSWEFPFTFGSGTKLEIKR
3.4e+06

Find the measured kon of HCV 208B-471 (antibody, V domains shown) VH: QGQLQQSGPVLVKPGASEILYCKTSGFTFSSTYISWLKQKPGQSLEWIAWIYAGTGATNYNQKFTGKAQLTVDASSNTAYMHFSGLTPEDSAIYYCAISGAGVYWGQGTLVTVSA VL: DVVMTQTPLSLPVSLGDQASISCRSSQSLLHSNGNTYLEWYLQKPGQSPNLLIYNVSNRFSGVPDRFSGSGSGTDFALKISRVGAEDLGVYYCFQGSHVPLTFGAGTKLELKR and report it.
220000
